The measurements presented in this section are drawn from the supplement of paper PMC9170038.

# Tested on: K4 kissing-loop RNA reporter
# protocol-summary: apparent KD of K4 kissing-loop reporter; higher = weaker reporter binding
# particulars: Eterna round: R107; input ligand: tryptophan 2.4 mM
Response field class: string, computed from recorded apparent KD of K4 kissing-loop reporter by ranges low range (below 0.1 µM), mid range (0.1 µM to below 0.3 µM), high range (0.3 µM or more)

seq-string	group
CAUAUCAGAUAAGGAUAUAUGGCUCCUCGAGUCCAGUGAUGUUGGGCAACGUUUCAGUGGUGGAUUAUAGAAGGUAUUCACAGAC [theeternabot_sameState_KL_FMN_B_9]	mid range
CAUAGACAAGUGAUGUUUGUCAUAACCGAAGGAGCGUCUUUAAAGACAGGUAGGUCGCGGAUUAGUUAAGUUAUGAUUCUUUAUG [#19 K4 Arginine A Same State]	high range
GGGCGCGGCGCGGCCGCCACUGGGCCUGGGCGCGCGCCGAGUGAUGUUCGCCUGCGGCUGGGUCGUAGGACCGGGUGCCGGCUGG [BDazzled 1]	mid range
UGUCAUUGGUCGGCCGCCACUUCAAGGUCAAAGACCAAAGAGUGAUGUUCUUAGACGAAAGUCAGAAGGACCGGGACCGAUGACU [TrypBS 9 #SwitchBubble #K4Middle]	high range
GGUAGCAUGGCGGCCGCCACUGCAAAGCAUAGCUACGGAAACGUAGCUACAGAGUGAUGUUCUGGCAGGACCGGGCCAUGCUACC	high range

Prompt: Which of the defined bands does the recorded apparent KD of K4 kissing-loop reporter of CGCAGUGAUGUUGCGAGUAGCUACAGGGAAGGAGCGUGCUAGAGCACAGGUAGGUCGCCCAGUGGCAGUGAUGUUGCCAAAGGGU [Exclusion ARginine A GF 17] sit within?
Completion: mid range

Prompt: Which of the defined bands does the recorded apparent KD of K4 kissing-loop reporter of AUUUAGACGAGUGAUGUUCGUGUUAUUACAGAGGAUAUGCGUGAUUGCAGAAGGCUGUAUUUAUAUAUGUUAUGUGGUUUUAAAA [whbob_Ex_FMNA__2th186] sit within?
Completion: low range

Prompt: Which of the defined bands does the recorded apparent KD of K4 kissing-loop reporter of AAGUGAUGUUGUAGUGAUGUUGUGAUGUUGCAGGAUAUAUAGUGAUGUAGAAGGGUAUGUGCAGUUUUCAUAUUUGAGUGUUGAU [mkkhmullin] sit within?
Completion: low range

* * *

# Tested on: MS2 coat protein
# protocol-summary: apparent KD of MS2 coat protein; higher = weaker reporter binding
# particulars: Eterna round: R107; input ligand: theophylline 20 uM
quantity: apparent KD of MS2 coat protein (nM)
Please state the figure in nM; there is no need to write the unit.

Example results:
seq-string	readout-number
UGAGUUAGACAAAAGUCUAGCUCUGGUGAAGGAGCGUCCGAAAGGACAGGUAGGUCGCACCACAUGAGCAUCAGCCAUGUUCCUU [ArgAS 23 #OpenEnded #AlternativeMS2]	26.9
AUAACUGUAAUAAACCGCAGGCUAGUGGAAGGAGCGCGGAAUAACGCAGGUAGGUCGCCACAAACAUGAGGAUCACCCAUGUGGC [SSAA NP+V+V2 #6]	21.6
UACAUGAGGAUCACCCAUGUAUGAAUGGAUACCAGCGACAAUGGGCGCCCUUGGCAGCUAGUGGAUGAAGGGUGGGUACAAUACU [Exclusion Theophyline A GF4]	17.7
GGUUACUCUACGGCCGCCACUGUUAAAUAAUAAACCUGUACAUAAACAUGAGGAUCACCCAUGUACAGGACCGGGUAGUGUAACC [Tryptophan B 8]	41
AGUCUUGUGGGAAGGAGCGCAUACUUCACAUGAGGAUCACCCAUGUCAAGACGUGAGUCAGUGCAGGUAGGUCGCCUAACUAAGA [Same State - Arginine B (Freestyle 15)]	37.4

// sample CUAUUCUGUACGGCCGCCACUUCAACGUGUAAGCUGGUGGUCCACUACAUGAGGAUCACCCAUGUAAGGACCGGGUACGGCGCGG [theeternabot_exclusion_MS2_Trp_B_29] , its apparent KD of MS2 coat protein was 16.6

// sample CUCUGAGUGAGGAAUCACUCAGAGGCGGAUACCAGCGAGGUCCAUCGCCCUUGGCAGCCGAACAUGAGGAUCACCCAUGUCGGUA [#1 Same State - Theophylline A Attempt #23 (HarryS)] , its apparent KD of MS2 coat protein was 12.1

// sample ACAUGAGGAUCACCCAUGUAAAUAGCGGAAGGAGCGUGCAAAAGCACAGGUAGGUCGCCGAUAUAAUAAUUGGGUAAUAUAUUAU [#27 Exclusion - Arginine A] , its apparent KD of MS2 coat protein was 24.6

// sample `UUCAGCUAGUCGGCCGCCACUACAUGAGCAUCAGCCAUGUUCCUAAAACACUGCUUCGGCAGUGGUAGGACCGGGACUAGCUGAG` , its apparent KD of MS2 coat protein was 12

// sample UUAUUUAUAAUGGAUACCAGUCGUAUGGCCCGGAAUCCUGACAUGAGGAUCACCCAUGUCGACCCUUGGCAGCUGUUAUGGGUUU [XTheo B #22] , its apparent KD of MS2 coat protein was 16.3

// sample AUAACACAUGAGGAUCACCCAUGUAAGGAUACCAGUUUCUGAUUAAACCCUUGGCAGCCUAGAGAUAGUCAUGUAAUAACGGCGA [theeternabot_sameState_MS2_Theo_A_19] , its apparent KD of MS2 coat protein was 18.1

* * *

# Tested on: K4 kissing-loop RNA reporter;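 also: bound reporter read as fluorescence of individual clusters on recovered sequencing chips by microscopy, with normalized cluster intensities fitted with a binding model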
# protocol-summary: apparent KD of K4 kissing-loop reporter; higher = weaker reporter binding
# particulars: Eterna round: R107; input ligand: none
apparent KD of K4 kissing-loop reporter of 200 nM or higher: T. Under 200 nM: F.

Prompt: # check: apparent KD of K4 kissing-loop reporter of AUUCAUGAGUGAUGUUCAUCGGCAGGAGAUACCAGCGAGUUAACCCGCCCUUGGCAGCUCAAGUAUAGGGACUCUGGCAUCGCCU [theeternabot_exclusion_KL_Theo_A_18] is greater than or equal to 200 nM
Completion: T

Prompt: # check: apparent KD of K4 kissing-loop reporter of GCGGGCCCGGGAGGAUAUGAGUCGAGUGAUGUUCGGCGGUCCAUGCCGUUGCGGCGUUAAGCCCUUUUAGAAGGCCCGGGCCCGC [#2 Exclusion - FMN B Attempt #2 (HarryS)] is greater than or equal to 200 nM
Completion: F

Prompt: # check: apparent KD of K4 kissing-loop reporter of AAAGCAGUAUACUGCAAGACCUAUACUGAUACCAGAGUCAAUUGACUCCCUUGGCAGCGGAUCGAGUGAUGUUCGUAAGGUCAAA [AK4.1 SS Theophylline A] is greater than or equal to 200 nM
Completion: T

Prompt: # check: apparent KD of K4 kissing-loop reporter of UGGAUAUAGUGAUGUUAUAUAGAGAGUGAUACCAGUUUAGAGAAGAACCCUUGGCAGCAUAGAAGAGUAUCAUUGGAGAAGAAUG [ExTheophyl.Aq] is greater than or equal to 200 nM
Completion: T

Prompt: # check: apparent KD of K4 kissing-loop reporter of `GCCGUACGCAUGGAUACCAGCAACCCUGCCAUCCCAGUGAUGUUGGGAGGAACAUUCUCAUGCCCUUGGCAGCCAUGCGUACGGC` is greater than or equal to 200 nM
Completion: T

Prompt: # check: apparent KD of K4 kissing-loop reporter of CCGAUGGGUACAGGAUAUGCCAGUGAUGUUGGUUUAGAUGGACCCAUAAGGAGACACCAGACGGAGGCAGAAGGGUAGCAAGGGA [Isonanti] is greater than or equal to 200 nM
Completion: F

* * *

# Tested on: MS2 coat protein
# protocol-summary: apparent KD of MS2 coat protein; higher = weaker reporter binding
# particulars: Eterna round: R107; input ligand: theophylline 20 uM
apparent KD of MS2 coat protein of 20 nM or higher: TRUE. Under 20 nM: FALSE.

Known results for sequences:
seq-string	group
UCGGGCAGAGCGGCCGCCACUGUUUGGCGUGCGGAUGACGGAACAUGAGGAUCACCCAUGUUGUUUAGGACCGGGCUUGCGGCGU [ipimullin]	FALSE
GGGAGGGAGGCGGCCGCCACUGAUUUUCAUAUAUAUAUAACAUGAGGAUCACCCAUGUGGAUAUACAGGACCGGGCCUUUUUUUU [aaaH]	TRUE

Prompt: # check: apparent KD of MS2 coat protein of CUAAGAGCGGCGGCCGCCACUGGUAACCGAGAGGAGGAGCUUCUGAACAUGAGGAUCACCCAUGUCAGGACCGGGUCGUCUUAGA [Same State - Tryptophan B] is greater than or equal to 20 nM
Completion: FALSE

Prompt: # check: apparent KD of MS2 coat protein of UUGCAUAUCUUGGAUACCAGCACAUGAGGAUCACCCAUGUCCGCGGGAUAGCUCCAGAUGUGCCCUUGGCAGCCACAUGCACUUG [Quinzama] is greater than or equal to 20 nM
Completion: FALSE

Prompt: # check: apparent KD of MS2 coat protein of UUUGCACAUGAGGAUCACCCAUGUACAGAUACCAGCCUCAUCUACGGCCCUUGGCAGCUGAGACAAUGGUGACGUGACGGGCUUU [Erqugere] is greater than or equal to 20 nM
Completion: FALSE

Prompt: # check: apparent KD of MS2 coat protein of AGCUUGUAGUCGGCCGCCACUAAUAGGGAUCCUAUCGAGGCGGGUAACAUGAGGAUCACCCAUGUUAGGACCGGGACAGCGAGGA [Cetian] is greater than or equal to 20 nM
Completion: FALSE

Prompt: # check: apparent KD of MS2 coat protein of GCAUCCUAGUCGGCCGCCACUGCAAUUGUAGUACUGCUACAUGAACAUGAGGAUCACCCAUGUAGCAGGACCGGGACUAGGAUGC [(Trp1)-(TM)''-(TM)'-(Ms2)-(Trp2)_Design10] is greater than or equal to 20 nM
Completion: TRUE

Prompt: # check: apparent KD of MS2 coat protein of GGUCUCUGGAGCGAUACCAGCUUGAUCGUACUAGCCAGGUACAUGAGGAUCACCCAUGUAAGCCCUUGGCAGCGCUCCAGAGACC [#1 Exclusion - Theophylline B Attempt #9 (HarryS)] is greater than or equal to 20 nM
Completion: FALSE
